# credit: ChEMBL document CHEMBL1123198

Molecular target: GABA-A receptor; anion channel (Rattus norvegicus) (UniProt O09028+P15431+P18506+P18508+P19969+P20236+P23574+P23576+P28471+P28473+P30191+P62813+P63079+P63138+Q91ZM7+Q9ES14)
Assay: Displacement of [35S]TBPS from GABA-A receptor of rat brain membranes
Assay type: cell membranes
Parameters: concentration or dose not given beside the values
Settings: Membrane
measured.endpoint: Displacement

{"columns": ["compound", "Displacement"],
 "data": [
  ["O=C(O)[C@@H]1CCCC2NCCCC21 (stereo in doubt; form 2)", "< 5%"],
  ["O=C(O)C1CCCC2NCCCC21 (trans isomer)", "< 5%"],
  ["O=C(O)[C@@H]1CCCC2NCCCC21 (stereo in doubt; 3)", "< 5%"],
  ["O=C(O)[C@@H]1CCCC2NCCCC21 (stereo in doubt; form 1)", "< 5%"]
]}

Attention now turns to another entry.
Ask: # lookup: Displacement of C=C(C)[C@@H]1[C@H]2OC(=O)[C@@H]1[C@]1(O)C[C@H]3O[C@]34C(=O)O[C@H]2[C@]14C
Result: 90%
